- Test system: PPARg:RXRa (NR concentration 180 nM, RXRa partner concentration 90 nM)
- assay.method.text: PBM binding z-score (relative to random genomic background probes); higher = stronger binding; sequences stand for … in GC…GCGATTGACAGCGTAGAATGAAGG
Listed here are sequences together with their documented PBM binding z-score.
quantity.measured: PBM binding z-score

1. CAAACCAGGTCACGAAAGGTCAAAGTCGAATGAC 9.2
2. ATATGTAGGTTAGGGCCATTCAGAAAGTAGGGAA 3.6
3. CGTCTAAGGTCAGCAGGTCAGTGAAAGCGACGTG 4.86
4. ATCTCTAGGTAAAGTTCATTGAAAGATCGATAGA 4.69
5. CGAACTAGGTCATAGGACAGTGAAAGGCGACGTA 9.06
6. CCGACGGGGGCAAGGTTACCATAACGCACAGCCA 2.74
7. TGAATGAAGTTAAAGATCAGGGAACGTGGCGTCG 0.843
8. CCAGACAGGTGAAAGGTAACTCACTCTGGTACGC 6.03
9. CCTTACGGGTCAAGGTTATCGCACGGGTGGTACG 4.85
10. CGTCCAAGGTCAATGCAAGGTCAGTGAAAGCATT 4.73
11. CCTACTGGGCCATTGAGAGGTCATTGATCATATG 1.83
12. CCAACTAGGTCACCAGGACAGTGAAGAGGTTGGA 8.3
13. CAAACTAGGTCACGAAAGGTCAAATTCGAATGAC 10.6
14. CCTCGGAGGACAACAGGATGTCAGAGCTGCCAGA 0.183
15. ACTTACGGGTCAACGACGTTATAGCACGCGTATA 5.3
16. TAGCCTCGGTCATTGGGCCAGTATAGTACGCATC 0.597
17. CGTCCAAGGTCAACGCTAGGTCAGTGAAAGCATT 5.29
18. ATATGTAGGTTAGGGACATTCAGAAAGTAGGGAA 3.98
19. CCTAGTTGGTCAGGAGGTCACAAACCGGATATGA 3.09
20. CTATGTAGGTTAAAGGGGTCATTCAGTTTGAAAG 9.57
21. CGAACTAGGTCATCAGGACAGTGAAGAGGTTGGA 7.71
22. CCATGTAGGTTAAGGGGGTCATTCAGTTTGAAAG 7.38
23. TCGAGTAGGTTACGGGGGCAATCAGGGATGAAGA 6.62

###

- Test system: FXR:RXRa (NR concentration 270 nM, RXRa partner concentration 90 nM)
- assay.method.text: PBM binding z-score (relative to random genomic background probes); higher = stronger binding; sequences stand for … in GC…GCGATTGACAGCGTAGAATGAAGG
# PBM binding z-score >= 4 gives class 1, anything below gives class 0

1) CCAAGTAGGTTACGAGGGGGCATTCAGTGCGAAT class 0
2) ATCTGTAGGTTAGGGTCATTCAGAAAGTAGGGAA class 1
3) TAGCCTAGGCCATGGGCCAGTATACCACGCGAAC class 0
4) ATATGTAGGATATCGGGTCATTCAGTTTGCGCAT class 0
5) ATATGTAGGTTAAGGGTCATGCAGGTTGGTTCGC class 1
6) CTCTGTAGGTTAAGGGGGTCATTCAGTTTGAAAG class 1
7) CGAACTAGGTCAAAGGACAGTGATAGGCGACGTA class 0
8) ATATGTAGGTCAGGGTCATTCAGAAAGTAGGGAA class 1
9) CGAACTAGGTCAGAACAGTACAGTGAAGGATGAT class 0
10) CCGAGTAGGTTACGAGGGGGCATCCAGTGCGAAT class 0
11) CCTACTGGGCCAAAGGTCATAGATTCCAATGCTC class 1
12) CGAAATAGGTCAAAGGACAGTGAAAGGCGACGTA class 1
13) ATATGTAGGTTAGGGTCTTTCAGAAAGTAGGGAA class 0
14) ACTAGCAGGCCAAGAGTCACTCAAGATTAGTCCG class 0

###

- System: PXR:RXRa (NR concentration 270 nM, RXRa partner concentration 90 nM)
- assay.method.text: PBM binding z-score (relative to random genomic background probes); higher = stronger binding; sequences stand for … in GC…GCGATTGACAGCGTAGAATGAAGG
quantity.measured: PBM binding z-score

1. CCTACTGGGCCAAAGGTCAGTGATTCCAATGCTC 3.49
2. ATCGAACGGTCGACGAGGTGAGTATACACCGTTT -0.192
3. ACCAGCAGGCCAAGGGTCACTCAAGATTAGTCCG 2.95
4. CCGACTGGGGCAAAGGTCACCATACTCAGTACGA 5.34
5. TCTAGTTGGTCAAAGGCCACACACTCGAAATGCG 0.772
6. CCTAGTTGGTCAAGGTCTCACACGCTATAGGTAC 0.365
7. ATCTCTAGGTAAAGTTCAGCGAAAGATCGATAGA 2.29
8. GCTGCTAGGTTAACTGATGGTCAGCTAAAGCTCG 0.00634
9. TGGCCTAGGTCATGGGCCAGTATACCACGCGAAC 1.04
10. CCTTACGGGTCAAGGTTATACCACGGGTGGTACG 3.49
11. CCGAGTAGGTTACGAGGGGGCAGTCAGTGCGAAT 3.74
12. TCGAGTAGGTTACGGGGACATTCAGGGATGAAGA 0.696
13. CTCGAAAGGTCAGTTGAGGTGAGTATACGGATAA 5.79
14. TCGATTAGGTTACGGGGGCATTCAGGGATGAAGA 3.63
15. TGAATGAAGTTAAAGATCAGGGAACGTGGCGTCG -0.563
16. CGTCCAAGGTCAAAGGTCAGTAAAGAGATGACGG 7.16
17. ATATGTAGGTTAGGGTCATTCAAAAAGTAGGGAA 4.47
18. CGAACTAGGTCAAAGGACTGTGAAAGGCGACGTA 0.827
19. GCTGCTCGGTCAACTGATGGTCAGCTAAAGCTCG -0.105
20. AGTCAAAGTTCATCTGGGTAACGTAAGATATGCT 5.16
21. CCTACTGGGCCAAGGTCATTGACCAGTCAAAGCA 3.71
22. ATCGAAAGGTCGAAGGTCAGTATACCCACCCGAA 5.13
23. TAGCCTAGGTGATTGGGCCAGTATAGTACGCATC -0.55
24. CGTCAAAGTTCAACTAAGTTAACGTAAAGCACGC 6.14

###

- System: PXR:RXRa (NR concentration 270 nM, RXRa partner concentration 90 nM)
- assay.method.text: PBM binding z-score (relative to random genomic background probes); higher = stronger binding; sequences stand for … in GC…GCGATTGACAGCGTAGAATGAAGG
Listed here are sequences together with their documented PBM binding z-score.
quantity.measured: PBM binding z-score

1) CCTACTGGGGCAAAGGTCATTGATTCCAATGCTC 5.6
2) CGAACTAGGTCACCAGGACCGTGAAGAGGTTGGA 1.19
3) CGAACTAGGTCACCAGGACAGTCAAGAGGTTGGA 1.51
4) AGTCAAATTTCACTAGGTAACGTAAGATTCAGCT 0.334
5) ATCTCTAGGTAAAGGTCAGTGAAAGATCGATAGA 3.35
6) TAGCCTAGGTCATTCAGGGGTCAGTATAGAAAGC 5.72
7) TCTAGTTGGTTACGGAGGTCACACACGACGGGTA 4.22
8) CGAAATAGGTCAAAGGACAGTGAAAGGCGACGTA 2.34
9) CAGCCTAGTTCAGGGCCAGTATAGGAGGAACGTT -0.0793
10) CCGAGTAGGTTACGAGGGCGCATTCAGTGCGAAT 0.483
11) TCTAGCTGGTCACGGAGGTCACACACGACGGGTA 4.91
12) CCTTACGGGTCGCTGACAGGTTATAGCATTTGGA 1

###

Listed here are sequences together with their documented PBM binding z-score.
- Tested on: PPARg:RXRa DBDmut IVT, anti-RXR (DBD mutation: RXRa K156A/R161A, NR concentration 270 nM, RXRa partner concentration 90 nM)
- assay.method.text: PBM binding z-score (relative to random genomic background probes); higher = stronger binding; sequences stand for … in GC…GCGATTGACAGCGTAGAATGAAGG
quantity.measured: PBM binding z-score

1. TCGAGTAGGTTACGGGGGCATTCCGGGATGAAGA 4.92
2. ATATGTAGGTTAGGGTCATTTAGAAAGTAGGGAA 6.56
3. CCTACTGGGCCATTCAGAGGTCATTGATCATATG 4.59
4. CCGAGTAGGTTACGAGGGGGCATTGAGTGCGAAT 4.78
5. TCGAGTAGATTACGGGGGCATTCAGGGATGAAGA 2.06
6. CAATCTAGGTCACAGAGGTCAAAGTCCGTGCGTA 9.1
7. ATATGTAGGTTAGGCTCATTCAGAAAGTAGGGAA 6.49
8. TCTAGTTGGTCAAAGGTCAAACACTCGAAATGCG 3.57
9. CCGAGTAGATTACGAGGGGGCATTCAGTGCGAAT 0.434
10. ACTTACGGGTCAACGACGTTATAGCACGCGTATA 3.06
11. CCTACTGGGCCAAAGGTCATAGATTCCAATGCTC 5.3
12. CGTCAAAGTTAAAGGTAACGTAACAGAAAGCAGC 0.379
13. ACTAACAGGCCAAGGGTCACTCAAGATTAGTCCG 0.923
14. AATACAGGGTGATCGTAGGCCAGAGTACGCACAG 0.342
15. ATCGAAAGGTCGAAGGTGAGTACACCCACCCGAA 0.019
16. TAGCCTCGGTCATTCAGGGGCCAGTATAGAAAGC -0.712
17. ATCGAAAGGTCGAGTTGAGTATAGAGAAAGGGAA -0.0281

Reference for the values: the supplement of paper PMC6555819
